Assignment: determine reported Vdss for the given compounds.
# Test summary: Volume of distribution at steady state in Sprague-Dawley rat at 2 umol/kg, po or 1 umol/kg, iv administered as single dose by LC-MS/MS analysis
# Type: ADME, organism-based
# Conditions used: in vivo, dose 1 µmol/kg
Starred links: 1 amine or outer side, 2 acyl side, 3 side chain; linkers in the order of their positions; H or OH if unused. Positions of bridges follow the written chain, without caps; N, C: chain ends. Non-standard residues stand in square brackets, D forms with d. Residues, ends and D or L forms follow the SMILES beside them. NHCH2CH2SCH2CO = O=C(CSCCN[*:1])[*:2]; NMeF = CN[C@@H](Cc1ccccc1)C(=O)O; hCha = N[C@@H](CCC1CCCCC1)C(=O)O; X1 = CC(C)(CN[*:1])SCC(=O)[*:2]; Pen = CC(C)(S)[C@H](N)C(=O)O; αMeP = C[C@@]1(C(=O)O)CCCN1
Numbers only, in L/kg.

Known Vdss results, listed for orientation:
INPUT: Provide measured Vdss value, entry: COC(=O)[C@H]1NC(=O)[C@H](C)NC(=O)[C@H](Cc2ccccc2)N(C)C(=O)[C@H](CC(C)C)NC(=O)[C@H](CCC2CCCCC2)NC(=O)[C@H](CC(C)C)NC(=O)[C@H](C(C)C)NC(=O)[C@]2(C)CCCN2C(=O)[C@H](C(C)C)NC(=O)[C@H](Cc2ccccc2)NC(=O)CSC1(C)C ({CH2CO}-FV[αMeP]VL[hCha]L[NMeF]A[Pen]-OMe; thioether N-10)
OUTPUT: 1.9

INPUT: Provide measured Vdss value, entry: CC(C)C[C@@H]1NC(=O)[C@H](C(C)C)NC(=O)[C@]2(C)CCCN2C(=O)[C@H](C(C)C)NC(=O)[C@H](Cc2ccccc2)NC(=O)CSC(C)(C)CNC(=O)[C@H](C)NC(=O)[C@H](Cc2ccccc2)N(C)C(=O)[C@H](CC(C)C)NC(=O)[C@H](CCC2CCCCC2)NC1=O (cyclo(A[X1]FV[αMeP]VL[hCha]L[NMeF]))
OUTPUT: 0.7

INPUT: Provide measured Vdss value, entry: CC(C)C[C@@H]1NC(=O)[C@H](C(C)C)NC(=O)[C@@H]2CCCN2C(=O)[C@H](C(C)C)NC(=O)[C@H](Cc2ccccc2)NC(=O)CSCCNC(=O)CNC(=O)[C@H](Cc2ccccc2)N(C)C(=O)[C@H](CC(C)C)NC(=O)[C@H](Cc2c[nH]c3ccccc23)NC1=O (cyclo(FVPVLWL[NMeF]G[NHCH2CH2SCH2CO]))
OUTPUT: 0.1

Further cases:
INPUT: Provide measured Vdss value, entry: CC(C)C[C@@H]1NC(=O)[C@H](C(C)C)NC(=O)[C@]2(C)CCCN2C(=O)[C@H](C(C)C)NC(=O)[C@H](Cc2ccccc2)NC(=O)CSCCNC(=O)[C@H](C)NC(=O)[C@H](Cc2ccccc2)N(C)C(=O)[C@H](CC(C)C)NC(=O)[C@H](CCC2CCCCC2)NC1=O (cyclo(A[NHCH2CH2SCH2CO]FV[αMeP]VL[hCha]L[NMeF]))
OUTPUT: 0.8
